Assayed system: D(4) dopamine receptor (Homo sapiens, UniProt P21917)
Sequence (P21917 whole entry): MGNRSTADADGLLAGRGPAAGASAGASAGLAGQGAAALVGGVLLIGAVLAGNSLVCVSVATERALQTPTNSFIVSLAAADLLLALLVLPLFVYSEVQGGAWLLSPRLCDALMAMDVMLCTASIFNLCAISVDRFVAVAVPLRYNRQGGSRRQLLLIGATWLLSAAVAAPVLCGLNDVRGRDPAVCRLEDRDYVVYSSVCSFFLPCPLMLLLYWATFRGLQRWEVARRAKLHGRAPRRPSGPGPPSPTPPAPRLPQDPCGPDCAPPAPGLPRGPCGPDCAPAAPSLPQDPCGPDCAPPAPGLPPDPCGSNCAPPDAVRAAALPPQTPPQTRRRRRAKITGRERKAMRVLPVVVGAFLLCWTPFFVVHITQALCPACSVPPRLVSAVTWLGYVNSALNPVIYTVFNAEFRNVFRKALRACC
pKi: −log10 of the molar value.
Parameter: pKi. Scope: all listed entries.
Measured endpoint: pKi

{"columns": ["Compound", "Measured endpoint", "Value"],
 "data": [
  ["OC1(c2ccc(Cl)cc2)CCN(Cc2c[nH]c3ccccc23)C1 (stereo unspecified)", "pKi", 6.09],
  ["Clc1ccc(N2CC3CC2CN3Cc2c[nH]c3ncccc23)cc1 (stereo unspecified)", "pKi", 7.16],
  ["c1cnc(N2CCN(Cc3c[nH]c4ncccc34)CC2)nc1", "pKi", 7.25],
  ["O[C@]1(c2ccc(Cl)cc2)C[C@H]2CC[C@@H](C1)N2Cc1c[nH]c2ccccc12", "pKi", 5.52],
  ["Clc1ccc(N2CCCN(Cc3c[nH]c4ncccc34)CC2)cc1", "pKi", 7.73],
  ["O=C(CCCN1CC2CC1N(c1ccc(Cl)cc1)C2)c1ccc(F)cc1 (stereo unspecified)", "pKi", 6.29]
]}

The origin of these recorded values is ChEMBL document CHEMBL1152692.
